Tested on: U2932 TK216-resistant clone 2
method summary: cell proliferation relative to vehicle (% of vehicle); higher = less growth inhibition
test settings: 500 nM; 72 h
The following compounds are shown together with reported cell proliferation values.
// response body must contain only the number

Asked: Under U2932 TK216-resistant clone 2: cell proliferation value of Cc1cc(N2CCOCC2)cc2[nH]c(-c3c(NC[C@@H](O)c4cccc(Cl)c4)cc[nH]c3=O)nc12 ?
Given back: 96

Asked: So what cell proliferation did O=C(Nc1cc(C(F)(F)F)cc(C(F)(F)F)c1)c1cc(Cl)ccc1O get with U2932 TK216-resistant clone 2?
Given back: 104

Asked: # get_value(readout= cell proliferation, system= U2932 TK216-resistant clone 2) for Nc1ccc(C(=O)Nc2cccc(-c3nc(N4CCOCC4)c4oc5ncccc5c4n3)c2)cn1
Given back: 104

Asked: Record C=CCn1c(=O)c2cnc(Nc3ccc(N4CCN(C)CC4)cc3)nc2n1-c1cccc(C(C)(C)O)n1 : what is its cell proliferation with U2932 TK216-resistant clone 2?
Given back: 20.5

Asked: Any idea what cell proliferation came out for COc1cc2ncnc(Nc3ccc(O)c(Br)c3)c2cc1OC on U2932 TK216-resistant clone 2?
Given back: 111

Asked: State its cell proliferation on U2932 TK216-resistant clone 2: COC(=O)c1ccc2c(c1)NC(=O)/C2=C(\Nc1ccc(N(C)C(=O)CN2CCN(C)CC2)cc1)c1ccccc1
Given back: 94.8

Asked: Find cell proliferation (U2932 TK216-resistant clone 2) for the entry CC(C)C[C@H](NC(=O)[C@H](CCc1ccccc1)NC(=O)CN1CCOCC1)C(=O)N[C@@H](Cc1ccccc1)C(=O)N[C@@H](CC(C)C)C(=O)[C@@]1(C)CO1
Given back: -4.13

Asked: Short answer please: cell proliferation, U2932 TK216-resistant clone 2, entry NC(=O)Nc1sc(-c2ccc(F)cc2)cc1C(N)=O
Given back: 92.7

###

cell proliferation overview
System: U2932 parental
method summary: cell proliferation relative to vehicle (% of vehicle); higher = less growth inhibition
test settings: 500 nM; 72 h
Number only, please.

Example results:
INSERT INTO measurements (compound, measured_target, experimental_result) VALUES
  ('Cc1cnc(-c2ccccc2C(C)C)nc1NCc1ccc(-n2ccnn2)cc1', 'U2932 parental', 98.5),
  ('CO[C@H]1C[C@@H]2CC[C@@H](C)[C@@](O)(O2)C(=O)C(=O)N2CCCC[C@H]2C(=O)O[C@H]([C@H](C)C[C@@H]2CC[C@@H](OCCO)[C@H](OC)C2)CC(=O)[C@H](C)/C=C(\C)[C@@H](O)[C@@H](OC)C(=O)[C@H](C)C[C@H](C)/C=C/C=C/C=C/1C [Everolimus (RAD001)]', 'U2932 parental', 59.1);

We now examine a further compound.
Asked: Any idea what its cell proliferation is? The compound is COc1ccc(S(=O)(=O)N(C(C)=O)c2ccccc2/C=C/c2cc[n+]([O-])cc2)cc1
Given back: 11.3

###

Recorded measurements of cell proliferation, one per entry
System: U2932 TK216-resistant clone 2
method summary: cell proliferation relative to vehicle (% of vehicle); higher = less growth inhibition
test settings: 50 nM; 72 h
Format: numeric value only, no unit, no commentary.

Previously resolved entries follow.
INSERT INTO measurements (molecule, experimental_result) VALUES
  ('CO[C@@H](C(=O)N1Cc2[nH]nc(NC(=O)c3ccc(N4CCN(C)CC4)cc3)c2C1)c1ccccc1', 97.2),
  ('O=C(NCc1ccncc1)C12CC3CC(C1)CC(c1ccc(Cl)cc1)(C3)C2', 105),
  ('CCS(=O)(=O)N1CC(CC#N)(n2cc(-c3ncnc4[nH]ccc34)cn2)C1', 107),
  ('CC[C@@H]1C(=O)N(C)c2cnc(Nc3ccc(C(=O)NC4CCN(C)CC4)cc3OC)nc2N1C1CCCC1', 13.1),
  ('COc1ccc(-c2ccc3c(N4CCOCC4)nc(N4C[C@@H](C)O[C@@H](C)C4)nc3n2)cc1CO', 95.3),
  ('C[C@@H]1CCN(C(=O)CC#N)C[C@@H]1N(C)c1ncnc2[nH]ccc12', 102),
  ('CN(CCOc1ccc(CC2SC(=O)NC2=O)cc1)c1ccccn1 (stereo not drawn) [Rosiglitazone]', 100),
  ('Cn1cc(C2=C(c3ccc(Cl)cc3Cl)C(=O)NC2=O)c2ccccc21', 105);

Asked: Sample CNc1nc(Nc2cn(C(C)(C)C#N)nc2C)ncc1C(F)(F)F — what was its cell proliferation?
Given back: 101

Asked: Please report the recorded cell proliferation for CCC(C)(C)C(=O)O[C@H]1C[C@@H](C)C=C2C=C[C@H](C)[C@H](CC[C@@H]3C[C@@H](O)CC(=O)O3)[C@H]21 [Simvastatin] .
Given back: 91.4

Asked: // lookup cell proliferation for COc1ccc(C2=N[C@@H](c3ccc(Cl)cc3)[C@@H](c3ccc(Cl)cc3)N2C(=O)N2CCNC(=O)C2)c(OC(C)C)c1 [Nutlin-3a]
Given back: 110

Asked: So what's the measured cell proliferation for this one? O=S(=O)(O)CCS [Mesna]
Given back: 110

Asked: Could you tell me which cell proliferation is on file for CNC(=O)c1cccc(-c2ccc3c(N4CCOC[C@@H]4C)nc(N4CCOC[C@@H]4C)nc3n2)c1 ?
Given back: 102

###

Test system: U2932 parental
method summary: cell proliferation relative to vehicle (% of vehicle); higher = less growth inhibition
test settings: 500 nM; 72 h
Listing of entries alongside the reported cell proliferation.
// print number alone

INSERT INTO assay_data (record_smiles, measured_target, experimental_result) VALUES
  ('CO[C@@]12[C@H](COC(N)=O)C3=C(C(=O)C(C)=C(N)C3=O)N1C[C@@H]1N[C@@H]12', 'U2932 parental', 35.8),
  ('Cc1nc(N)sc1-c1ccnc(Nc2ccc(N3CCOCC3)cc2)n1', 'U2932 parental', 95.8),
  ('O=C(Nc1cccc(Nc2ncc(Br)c(NCCc3cnc[nH]3)n2)c1)N1CCCC1', 'U2932 parental', 68.1),
  ('Oc1nc(-c2ccc(C(F)(F)F)cc2)nc2c1CSCC2', 'U2932 parental', 98.2),
  ('Clc1ccc(C2(c3ccc(-c4cn[nH]c4)cc3)CCNCC2)cc1', 'U2932 parental', 75.5);

Asked: Give the reported cell proliferation for NC(=O)c1ccc(I)c([N+](=O)[O-])c1 (system: U2932 parental).
Given back: 102

Asked: cell proliferation of N=C1NC(=O)/C(=C/c2ccc(O)cc2)S1 on U2932 parental?
Given back: 97.3

Asked: Given the entry CC(C)Oc1ccc(C(=O)N[C@H](CNC(=O)CN(C)C)Cc2ccc(-c3cn4cccc([C@H](C)O)c4n3)cc2)cc1Cl , what cell proliferation was observed with U2932 parental?
Given back: 14.6

Asked: Param readout= cell proliferation; system= U2932 parental; entry= COc1cc2c(Oc3ccc(NC(=O)C4(C(=O)Nc5ccc(F)cc5)CC4)cc3F)ccnc2cc1OCCCN1CCOCC1 ; returns value.
Given back: 58.9

###

Examples of compounds with documented cell proliferation follow.
Tested on: U2932 TK216-resistant clone 2
method summary: cell proliferation relative to vehicle (% of vehicle); higher = less growth inhibition
test settings: 500 nM; 72 h
The response must contain the number and no unit.

Known cell proliferation results, listed for orientation:
INSERT INTO results (compound, measured_target, experimental_result) VALUES
  ('NC(=O)Nc1cc(-c2cccc(F)c2)sc1C(=O)N[C@H]1CCCNC1', 'U2932 TK216-resistant clone 2', 13.6),
  ('CC(=O)Nc1ccc(NC(=S)NC(=O)c2ccc(C(C)(C)C)cc2)cc1 [Tenovin-1]', 'U2932 TK216-resistant clone 2', 95.1),
  ('C[C@H](Nc1ncnc2nc[nH]c12)c1cc2cccc(Cl)c2c(=O)n1-c1ccccc1', 'U2932 TK216-resistant clone 2', 92.2),
  ('Cc1cc(Nc2cc(N3CCN(C)CC3)nc(Sc3ccc(NC(=O)C4CC4)cc3)n2)n[nH]1 [VX-680 (Tozasertib, MK-0457)]', 'U2932 TK216-resistant clone 2', 79.9),
  ('CN(Cc1cnc2nc(N)nc(N)c2n1)c1ccc(C(=O)N[C@@H](CCC(=O)O)C(=O)O)cc1 [Methotrexate]', 'U2932 TK216-resistant clone 2', 37.1),
  ('CC(C)N(CCCNC(=O)Nc1ccc(C(C)(C)C)cc1)C[C@H]1O[C@@H](n2cc(Br)c3c(N)ncnc32)[C@H](O)[C@@H]1O', 'U2932 TK216-resistant clone 2', 100);

Please look at the following compound next.
Asked: Quick one: cell proliferation for CC1(C)CCC(c2ccc(Cl)cc2)=C(CN2CCN(c3ccc(C(=O)NS(=O)(=O)c4ccc(N[C@H](CCN5CCOCC5)CSc5ccccc5)c(S(=O)(=O)C(F)(F)F)c4)cc3)CC2)C1 [ABT-263 (Navitoclax)] ?
Given back: 62.4
